biological target: human CXCR4 (human); assay: competition with [125I]-CXCL12 on HEK293T-CXCR4 membranes
Measurement Type: IC50 (read off the curve)
Report as: number unit

Previously resolved entries follow.
- 238D4-20GS-238D4 (VHH) EVQLMESGGGLVQAGGSLRLSCAASGRTFNNYAMGWFRRAPGKEREFVAAITRSGVRSGVSAIYGDSVKDRFTISRDNAKNTLYLQMNSLKPEDTAVYTCAASAIGSGALRRFEYDYSGQGTQVTVSSGGGGSGGGGSGGGGSGGGGSEVQLMESGGGLVQAGGSLRLSCAASGRTFNNYAMGWFRRAPGKEREFVAAITRSGVRSGVSAIYGDSVKDRFTISRDNAKNTLYLQMNSLKPEDTAVYTCAASAIGSGALRRFEYDYSGQGTQVTVSS: 2 nM
- 238D2-20GS-238D4 (VHH) EVQLVESGGGLVQTGGSLRLSCAASGFTFSSYAMSWVRQAPGKGLEWVSGIKSSGDSTRYAGSVKGRFTISRDNAKNMLYLQMYSLKPEDTAVYYCAKSRVSRTGLYTYDNRGQGTQVTVSSGGGGSGGGGSGGGGSGGGGSEVQLMESGGGLVQAGGSLRLSCAASGRTFNNYAMGWFRRAPGKEREFVAAITRSGVRSGVSAIYGDSVKDRFTISRDNAKNTLYLQMNSLKPEDTAVYTCAASAIGSGALRRFEYDYSGQGTQVTVSS: 0.5 nM
- 238D2-15GS-238D4 (VHH) EVQLVESGGGLVQTGGSLRLSCAASGFTFSSYAMSWVRQAPGKGLEWVSGIKSSGDSTRYAGSVKGRFTISRDNAKNMLYLQMYSLKPEDTAVYYCAKSRVSRTGLYTYDNRGQGTQVTVSSGGGGSGGGGSGGGGSEVQLMESGGGLVQAGGSLRLSCAASGRTFNNYAMGWFRRAPGKEREFVAAITRSGVRSGVSAIYGDSVKDRFTISRDNAKNTLYLQMNSLKPEDTAVYTCAASAIGSGALRRFEYDYSGQGTQVTVSS: 0.5 nM

Please examine the following record next.
Asked: Please look up its IC50 (read off the curve): Nanobody 238D4 (VHH, from a related filing, part only) VHH: EVQLMESGGGLVQAGGSLRLSCAASGRTFNNYAMGWFRRAPGKEREFVAAITRSGVRSGVSAIYGDSVKDRFTISRDNAKNTLYLQMNSLKPEDTAVYTCAASAIGSGALRRFEYDYSGQGTQVTVSS
Given back: 10 nM
